Molecular target: 5-hydroxytryptamine receptor 1A (Homo sapiens)
Sequence (P08908 whole entry): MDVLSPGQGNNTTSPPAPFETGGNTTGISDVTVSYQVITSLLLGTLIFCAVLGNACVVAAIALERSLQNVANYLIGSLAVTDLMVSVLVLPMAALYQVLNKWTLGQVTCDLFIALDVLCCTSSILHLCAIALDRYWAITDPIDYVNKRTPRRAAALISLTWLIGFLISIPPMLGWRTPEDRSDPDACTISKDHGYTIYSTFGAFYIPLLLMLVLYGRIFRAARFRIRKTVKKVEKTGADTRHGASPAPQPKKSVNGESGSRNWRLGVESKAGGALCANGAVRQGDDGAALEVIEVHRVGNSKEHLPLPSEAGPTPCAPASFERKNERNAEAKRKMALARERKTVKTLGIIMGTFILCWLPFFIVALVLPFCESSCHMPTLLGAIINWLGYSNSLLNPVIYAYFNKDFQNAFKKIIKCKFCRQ
Test: Binding affinity to human 5HT1A receptor transfected in COS1 cells assessed as compound required to occupy 50% of receptor
Format: cell-based, COS-1
Label 1 when Ki is strictly below 1000 nM; at or above that, label 0.

Consider the worked cases shown below.
INSERT INTO results (mol, label_value) VALUES
  ('COc1ccc2c(NCCNc3ccnc4cc(OC)ccc34)ccnc2c1', 1),
  ('Cc1cccc2c(NCCNc3ccnc4c(C)cccc34)ccnc12', 0),
  ('COc1cccc2c(NCCCCCCCNc3ccnc4c(OC)cccc34)ccnc12', 1),
  ('COc1cccc2c(NCCNc3ccnc4c(OC)cccc34)ccnc12', 0),
  ('COc1ccc2c(NCCCCCCCNc3ccnc4cc(OC)ccc34)ccnc2c1', 0),
  ('Cc1ccc2c(NCCCCCCCNc3ccnc4cc(C)ccc34)ccnc2c1', 0),
  ('c1ccc2c(NCCNc3ccnc4ccccc34)ccnc2c1', 0),
  ('Cc1ccc2nccc(NCCNc3ccnc4ccc(C)cc34)c2c1', 1);

Challenge: Given c1ccc2c(NCCCCCCCNc3ccnc4ccccc34)ccnc2c1 , is recorded Ki strictly lower than 1000 nM?
Response given: 1

Challenge: Given Cc1ccc2nccc(NCCCCCCCNc3ccnc4ccc(C)cc34)c2c1 , is recorded Ki strictly lower than 1000 nM?
Response given: 0

Challenge: Given COc1ccc2nccc(NCCCCCCCNc3ccnc4ccc(OC)cc34)c2c1 , is recorded Ki strictly lower than 1000 nM?
Response given: 0

Challenge: Given Cc1ccc2c(NCCNc3ccnc4cc(C)ccc34)ccnc2c1 , is recorded Ki strictly lower than 1000 nM?
Response given: 0
